- test_system: Human recombinant Top1 (Homo sapiens, UniProt P11387)
- Sequence (P11387 whole entry): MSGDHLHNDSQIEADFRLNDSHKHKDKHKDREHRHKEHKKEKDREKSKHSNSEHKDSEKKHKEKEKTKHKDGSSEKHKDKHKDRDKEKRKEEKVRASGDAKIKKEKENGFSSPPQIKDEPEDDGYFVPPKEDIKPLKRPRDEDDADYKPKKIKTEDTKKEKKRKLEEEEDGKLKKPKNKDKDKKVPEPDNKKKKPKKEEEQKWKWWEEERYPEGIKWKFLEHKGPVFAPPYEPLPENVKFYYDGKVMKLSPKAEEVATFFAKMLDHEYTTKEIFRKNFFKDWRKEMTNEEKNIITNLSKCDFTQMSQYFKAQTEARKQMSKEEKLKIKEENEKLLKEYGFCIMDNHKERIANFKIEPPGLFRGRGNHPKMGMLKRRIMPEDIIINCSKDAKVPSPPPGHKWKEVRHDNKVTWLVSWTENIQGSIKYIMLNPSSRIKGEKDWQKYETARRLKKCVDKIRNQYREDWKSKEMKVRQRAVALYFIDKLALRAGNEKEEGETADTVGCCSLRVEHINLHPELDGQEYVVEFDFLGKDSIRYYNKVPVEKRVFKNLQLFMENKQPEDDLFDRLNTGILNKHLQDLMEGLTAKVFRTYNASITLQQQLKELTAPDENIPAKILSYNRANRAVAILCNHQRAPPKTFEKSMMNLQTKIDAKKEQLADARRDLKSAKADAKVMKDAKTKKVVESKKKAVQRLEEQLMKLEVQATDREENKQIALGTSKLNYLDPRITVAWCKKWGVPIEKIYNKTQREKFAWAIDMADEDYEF
- method_notes: Top1-mediated DNA cleavage assay
- Assay type: biochemical
- assay_setup: graded relative to 1 μM camptothecin
measured_endpoint: Top1 cleavage

O=C1c2cc(O)ccc2-c2c1c1ccc([N+](=O)[O-])cc1c(=O)n2CCCBr    +++++
Br.NCCCn1c2c(c3ccc([N+](=O)[O-])cc3c1=O)C(=O)c1cc(O)ccc1-2    ++++
Br.COc1cc2c(cc1O)-c1c(c3ccc([N+](=O)[O-])cc3c(=O)n1CCCn1ccnc1)C2=O    ++(+)

* * *

- test_system: Human recombinant Top1 (Homo sapiens)
- method_notes: Top1-mediated DNA cleavage assay
- Assay type: biochemical
- assay_setup: graded relative to 1 μM camptothecin
measured_endpoint: Top1 cleavage

Br.O=C1c2ccc(O)cc2-c2c1c1ccc([N+](=O)[O-])cc1c(=O)n2CCCN1CCOCC1    ++++
Br.O=C1c2cc(O)ccc2-c2c1c1ccc([N+](=O)[O-])cc1c(=O)n2CCCN1CCOCC1    +++++

* * *

- Test system: 60 common human cancer cell lines (NCI-60)
- method_notes: NCI-60 five-dose screen, mean-graph midpoint
- Assay type: cell-based
- assay_setup: Homo sapiens, 60 cell, read-out: MGM
Each record here notes measured GI50.
// return numeric value only (unit: nM, not printed)

In the examples that follow, each entry is paired with its recorded GI50.
COc1cc2c(cc1O)-c1c(c3ccc([N+](=O)[O-])cc3c(=O)n1CCCN1CCOCC1)C2=O    200
Br.NCCCn1c2c(c3ccc([N+](=O)[O-])cc3c1=O)C(=O)c1ccc(O)cc1-2    410
Br.NCCCn1c2c(c3ccc([N+](=O)[O-])cc3c1=O)C(=O)c1c(O)cccc1-2    2000

Lookup: What does the record list as GI50 for "Br.NCCCn1c2c(c3ccc([N+](=O)[O-])cc3c1=O)C(=O)c1cc(O)ccc1-2" ?
Found: 120

Lookup: What does the record list as GI50 for "O=C1c2c(O)cccc2-c2c1c1ccc([N+](=O)[O-])cc1c(=O)n2CCCN1CCOCC1" ?
Found: 3500

Lookup: What does the record list as GI50 for "Br.COc1cc2c(cc1O)-c1c(c3ccc([N+](=O)[O-])cc3c(=O)n1CCCn1ccnc1)C2=O" ?
Found: 740

* * *

Each record here notes measured pIC50.
- test_system: recombinant TDP1 (Homo sapiens)
- Sequence (Q9NUW8 whole entry): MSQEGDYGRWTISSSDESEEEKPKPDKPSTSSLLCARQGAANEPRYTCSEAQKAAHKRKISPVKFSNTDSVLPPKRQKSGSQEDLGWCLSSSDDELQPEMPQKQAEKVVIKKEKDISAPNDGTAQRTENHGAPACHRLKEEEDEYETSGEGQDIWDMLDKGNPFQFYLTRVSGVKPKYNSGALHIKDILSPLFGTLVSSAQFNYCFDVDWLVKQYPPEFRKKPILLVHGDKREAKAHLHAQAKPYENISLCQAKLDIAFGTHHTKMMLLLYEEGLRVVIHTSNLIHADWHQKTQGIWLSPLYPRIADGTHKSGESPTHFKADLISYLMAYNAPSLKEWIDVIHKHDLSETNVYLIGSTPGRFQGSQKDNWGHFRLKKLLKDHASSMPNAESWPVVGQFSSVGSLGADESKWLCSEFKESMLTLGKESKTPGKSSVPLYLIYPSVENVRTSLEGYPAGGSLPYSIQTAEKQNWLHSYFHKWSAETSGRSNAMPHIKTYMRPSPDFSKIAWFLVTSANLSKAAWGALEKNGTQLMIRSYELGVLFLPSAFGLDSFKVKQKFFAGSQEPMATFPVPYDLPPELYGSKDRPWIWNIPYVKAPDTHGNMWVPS
- method_notes: Gel-based assay measuring the inhibition of recombinant TDP1
- Type: biochemical
- assay_setup: read-out: TDP1 inhibition; semiquantitative IC50 scale
pIC50: −log10 of the molar value.

In the examples that follow, each entry is paired with its recorded pIC50.
O=C1c2cc(O)ccc2-c2c1c1ccc([N+](=O)[O-])cc1c(=O)n2CCCBr    3.95 to 4.43
Br.COc1cc2c(cc1O)C(=O)c1c-2n(CCCN)c(=O)c2cc([N+](=O)[O-])ccc12    4.43 to 4.92
Br.COc1cc2c(cc1O)-c1c(c3ccc([N+](=O)[O-])cc3c(=O)n1CCCN)C2=O    4.43 to 4.92
O=C1c2ccccc2-c2c1c1ccccc1c(=O)n2CCCNCCCNCCCn1c2c(c3ccccc3c1=O)C(=O)c1ccccc1-2    4.92 to 6.00
Br.COc1cc2c(cc1O)-c1c(c3ccc([N+](=O)[O-])cc3c(=O)n1CCCn1ccnc1)C2=O    4.43 to 4.92

Lookup: What does the record list as pIC50 for "Cl.NCCCn1c2c(c3ccc([N+](=O)[O-])cc3c1=O)C(=O)c1cccc(O)c1-2" ?
Found: 4.43 to 4.92

Lookup: What does the record list as pIC50 for "Br.NCCCn1c2c(c3ccc([N+](=O)[O-])cc3c1=O)C(=O)c1cc(O)ccc1-2" ?
Found: 3.95 to 4.43

Lookup: What does the record list as pIC50 for "Br.NCCCn1c2c(c3ccc([N+](=O)[O-])cc3c1=O)C(=O)c1c(O)cccc1-2" ?
Found: 4.43 to 4.92

Lookup: What does the record list as pIC50 for "Br.NCCCn1c2c(c3ccc([N+](=O)[O-])cc3c1=O)C(=O)c1ccc(O)cc1-2" ?
Found: 4.92 to 6.00

// provenance: paper PMC7747014
